molecular target: Cytochrome P450 2C19 (Homo sapiens); assay: Cytochrome panel assay with activity outcomes; details: recombinant CYP, pro-luciferin dealkylation, luminescence, p450-cyp2c19; series mostly up to 57.1 µM; for activity, negative = inhibition: % is set by controls: 0 for no effect and ±100 for the full control effect
Hit rate of the full screen: of about 16,000 compounds, about 5,800 (36%) were called active. Not shown: some 23% with an inconclusive outcome. The list shows a part of the results.
The following compounds are shown together with reported activity, negative = inhibition values.
valueKind: activity, negative = inhibition

• CC(C)N(Cc1ccccc1)S(=O)(=O)c1n[nH]c(C(C)(C)C)n1 = -40.1% [at 11.4 µM] (inactive)
• CC(C)=CCC/C(C)=C/CO/N=C1/C[C@@H](O)[C@@H](O)[C@@H]2[C@@H]3C(=O)N(C(C)(C)C)C(=O)[C@H]3CC[C@@H]12 = -29.1% [at 11.4 µM] (inactive)
• O=C(O)c1ccc(/C=N\N=C2c3ccccc3-c3ccccc32)cc1 = 19.5% [at 11.4 µM] (inactive)
• Oc1ccc2ccccc2c1C=NCc1c(O)ccc2ccccc12 = -16.5% [at 11.4 µM] (inactive)
• CN(CC(=O)O)Cc1c(O)c(Cl)cc(Cl)c1Cl = 40.6% [at 11.4 µM] (inactive)
• O=C(C[N+]1(c2ccccc2)CCOCC1)c1ccccc1 = -17.3% [at 11.4 µM] (inactive)
• COc1ccc(OC[C@@H](CO)OC)cc1 = 28.9% [at 11.4 µM] (inactive)
• COc1ccc(Cc2ccccc2C(=O)O)c2ccccc12 = 12.2% [at 11.4 µM] (inactive)
• O=C(O)c1ccc(OCc2ccccc2)c(Cl)c1 = 18.7% [at 11.4 µM] (inactive)
• CO[C@@H]1COC(=O)C/C=C\[C@@H](C)[C@H](OC)COC(=O)[C@@H](C)COC(=O)C/C=C\[C@H]1C = 4.43% [at 11.4 µM] (inactive)
• Clc1ccccc1C(Nc1cnccn1)Nc1cnccn1 = 12% [at 11.4 µM] (inactive)
• CCOC(=O)CCN1C(=O)[C@H]2[C@@H]3[C@H](O)[C@H](O)CC(=O)[C@H]3CC[C@H]2C1=O = -31.9% [at 11.4 µM] (inactive)
• C[N+]1(CCC(=O)c2ccco2)CC2CCC(CC2)C1 (stereo not drawn) = -31.3% [at 11.4 µM] (inactive)
• CO[C@@H]1COC(=O)CCC[C@@H](C)[C@H](OC)COC(=O)CCC[C@H]1C = 5.51% [at 11.4 µM] (inactive)
• Cc1ccc(S(=O)(=O)N[C@H](CO)C(=O)O)cc1 = -10.2% [at 11.4 µM] (inactive)
• CC(CO)(CO)Nc1ncnc2ccccc12 = 1.8% [at 11.4 µM] (inactive)
• Cc1cc(Cl)nc(NC(=O)CSc2ccc(Cl)cc2)n1 = 34.4% [at 11.4 µM] (inactive)
• C/C(CCN1CCc2nc(-c3ccccc3)c(-c3ccccc3)cc2C1)=N\O[C@@H](C)CN1CCCc2nc(C)c(C)cc21 = -28.4% [at 11.4 µM] (inactive)
• OC[C@@H](O)CNc1ncnc2ccccc12 = 1.02% [at 11.4 µM] (inactive)
• CN(C)Cc1cc(Cl)c(O)c(CN(C)C)c1 = 2.46% [at 11.4 µM] (inactive)
• O=C(O)c1ccc(NCc2nc3cc4ccccc4cc3[nH]2)cc1 = 60.6% [at 11.4 µM] (inactive)
• ClC(Cl)(Cl)C(N1CCN(c2ccccc2)CC1)N1CCN(c2ccccc2)CC1 = 21% [at 11.4 µM] (inactive)
• CC(C)(N=NC(C)(C)C(=N)N)C(=N)N = 41.9% [at 11.4 µM] (inactive)

###

target: Cytochrome P450 2C19 (Homo sapiens); assay: Cytochrome panel assay with activity outcomes; conditions: recombinant CYP, pro-luciferin dealkylation, luminescence, p450-cyp2c19; series mostly up to 57.1 µM
Among all 16,000 compounds or so, about 5,800 (36%) were called active. Another 23% or so got no clear call; they are omitted. Calls follow the shape of the dose curve; as a rule, active = well fitted curve in the direction sought with a large enough effect; inconclusive = small, poorly fitted or top-dose-only effect, or effect the other way; inactive = no such curve, though single readings can be large or run the other way. Some of the results follow.
Outcome codes: 1.0 for active, 0.0 for inactive

- Cc1ccc(C(=O)Nc2cc(Cl)ccc2OC(=O)c2ccc(C)cc2)cc1: 1.0
- Cc1ccccc1-c1cc(NCCN2CCOCC2)ncn1: 0.0
- Cc1ccc(S(=O)(=O)Oc2cc(N)c3c(n2)CCC3)cc1: 1.0
- Cc1ccccc1CNc1ncnc2c1ncn2[C@@H]1O[C@@H](CO)[C@H](O)[C@@H]1O: 0.0
- Cc1ccccc1-c1nccc(NCCN2CCOCC2)n1: 1.0
- CCCCC1(C)Nc2ccccc2-c2nc3ccccc3n21 (configuration not stated): 1.0
- c1ccc(CNc2ccnc(-c3ccoc3)n2)cc1: 1.0
- CCOC(=O)c1c(NC(=O)c2ccc(N3CCOCC3)c([N+](=O)[O-])c2)sc(C)c1C: 0.0
- CCc1ccc(C(=O)N2CCC(c3nc4ccccc4s3)CC2)cc1: 1.0
- Clc1ccccc1-c1nccc(NCCN2CCOCC2)n1: 1.0
- Cc1cnc(CNc2ccnc(-c3ccoc3)n2)cn1: 0.0
- Cc1ccc(OCC(=O)N2CCN(c3ccc([N+](=O)[O-])c(N4CCOCC4)c3)CC2)cc1: 1.0
- CC(C)C(=O)NCCn1ccc2ccccc21: 1.0
- CCc1ccc2c(c1)cc(CN(C(=S)Nc1cccc(C)c1)C1CC1)c1nnnn12: 1.0
- CO/N=C/c1ccc(N2CCN(C(=O)c3ccc(Cl)cc3Cl)CC2)c([N+](=O)[O-])c1: 1.0
- Clc1ccc(-c2nnc(CCc3ccccc3)o2)c(Cl)c1: 1.0
- Cn1c(=O)n(C)c2cc([N+](=O)[O-])c(N3CCN(C(=O)c4ccccc4Cl)CC3)cc21: 1.0
- CSc1nnc(-c2ccc(Cl)cc2Cl)o1: 1.0
- Cc1noc(C)c1-c1nccc(NCCN2CCOCC2)n1: 0.0
- CC(C)CC(=O)N[C@H](C(=O)N[C@H](C(=O)N[C@@H](CC(C)C)[C@H](O)CC(=O)N[C@@H](C)C(=O)N[C@@H](CC(C)C)[C@H](O)CC(=O)O)C(C)C)C(C)C: 0.0
- COc1ccc(NC(=O)c2ccc(C(=O)c3cc(OC)ccc3OC)cc2)cc1: 0.0
- CC12CS(=O)(=O)CC1SC(=S)N2c1ccccn1 (configuration not stated): 0.0

###

Recorded activity, negative = inhibition values for a group of molecules are listed next.
target: Cytochrome P450 2C19 (Homo sapiens) (UniProt P33261); experiment: Cytochrome panel assay with activity outcomes; conditions: recombinant CYP, pro-luciferin dealkylation, luminescence, p450-cyp2c19; series mostly up to 57.1 µM; for activity, negative = inhibition: % is set by controls: 0 for no effect and ±100 for the full control effect
Sequence (P33261 whole entry, looked up): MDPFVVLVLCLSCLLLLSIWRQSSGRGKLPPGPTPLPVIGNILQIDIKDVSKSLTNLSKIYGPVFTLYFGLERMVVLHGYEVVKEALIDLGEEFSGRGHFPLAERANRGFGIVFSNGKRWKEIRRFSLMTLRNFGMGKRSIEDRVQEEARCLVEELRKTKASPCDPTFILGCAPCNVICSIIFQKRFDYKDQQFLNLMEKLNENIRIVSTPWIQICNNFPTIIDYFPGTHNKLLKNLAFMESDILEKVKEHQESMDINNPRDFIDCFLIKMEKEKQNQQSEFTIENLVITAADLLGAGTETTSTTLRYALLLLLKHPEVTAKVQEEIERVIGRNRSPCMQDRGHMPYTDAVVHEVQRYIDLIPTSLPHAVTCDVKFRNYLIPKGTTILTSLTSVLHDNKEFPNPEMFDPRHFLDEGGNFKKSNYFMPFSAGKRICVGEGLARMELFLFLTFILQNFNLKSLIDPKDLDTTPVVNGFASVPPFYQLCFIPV
Hit rate of the full screen: of about 16,000 compounds, about 5,800 (36%) were called active. Not shown: some 23% with an inconclusive outcome. Some of the results follow.
valueKind: activity, negative = inhibition

• O=C(O)c1ccccc1-c1ccccc1C(=O)Nc1ccc2c(c1)[nH]c(=O)c1ccccc12 = -24.7% [at 11.4 µM] (inactive)
• CC(=O)OC[C@@H]1O[C@H](CCO/N=C(\C)CCN2CCCc3nc(C)c(C)cc32)C=C[C@@H]1OC(C)=O = 38.8% [at 11.4 µM] (inactive)
• C[N+]1(C)CCc2cc(O)c(O)cc2[C@H]1Cc1ccc(O)c(O)c1 = 26.9% [at 11.4 µM] (inactive)
• CO/N=C\[C@@H](C)[C@H](OCc1ccccc1)C(C)C = 2.64% [at 11.4 µM] (inactive)
• CC(=O)OC[C@@H]1O[C@H](CCO/N=C(\C)CCN2CCc3nc(-c4ccccc4)c(-c4ccccc4)cc3C2)C=C[C@@H]1OC(C)=O = -28.2% [at 11.4 µM] (inactive)
• CO[C@@H](NC(N)=O)C(=O)O = 20.6% [at 11.4 µM] (inactive)
• O=C1C2=C(Nc3cc([N+](=O)[O-])ccc3N2)O[C@@H]1c1ccc([C@H]2OC3=C(Nc4ccc([N+](=O)[O-])cc4N3)C2=O)cc1 = -18.1% [at 11.4 µM] (inactive)
• c1ccc(CN2CC[C@@H](CNc3ncnc4ccccc34)C2)cc1 = -7.26% [at 11.4 µM] (inactive)
• O=C(O)c1c(Cl)c(Cl)c(Cl)c(Cl)c1C(=O)Nc1ccc2cn[nH]c2c1 = -27.8% [at 11.4 µM] (inactive)

###

target: Cytochrome P450 2C19 (Homo sapiens) (UniProt P33261); assay: Cytochrome panel assay with activity outcomes; conditions: recombinant CYP, pro-luciferin dealkylation, luminescence, p450-cyp2c19; series mostly up to 57.1 µM
The whole screen tested about 16,000 compounds, of which about 5,800 (36%) were called active. Another 23% or so got no clear call; they are omitted. Calls come from the whole dose curve; as a rule, active = well fitted curve in the direction sought with a large enough effect; inconclusive = small, poorly fitted or top-dose-only effect, or effect the other way; inactive = no such curve, though single readings can be large or run the other way. Some of the results follow.
Classes used: 1 (yes) = active, 0 (no) = inactive

• Cc1cccc(CNc2ncncc2-c2cccc(C#N)c2)c1 = 1 (yes)
• Cc1cnc(CNc2ncncc2-c2cccc(C#N)c2)cn1 = 0 (no)
• Cc1cccc(-c2nc(CN3CCCC(C(=O)NC4CCCCC4)C3)c(C)o2)c1 (stereo not drawn) = 1 (yes)
• CC(=O)COC(=O)CCc1nc2ccccc2[nH]c1=O = 1 (yes)
• Cc1ccc(C(=O)Oc2cc(C)n(C)c(=O)c2)cc1 = 0 (no)
• Nc1nc(Sc2ccc([N+](=O)[O-])c3nonc23)c2[nH]cnc2n1 = 1 (yes)
• COc1cccc2cc(C(=O)CC3(O)C(=O)N(Cc4ccccc4)c4ccccc43)c(=O)oc12 (stereo not drawn) = 1 (yes)
• N#Cc1cccc(-c2cncnc2NCc2cccnc2)c1 = 1 (yes)
• Nc1nc(SC/C=C\c2ccccc2)c2[nH]cnc2n1 = 1 (yes)
• Cc1cc(SCC(=O)c2ccccc2)nc(SCC(=O)c2ccccc2)n1 = 1 (yes)
• CCc1cc2c(c(CC)n1)CCC(=O)N2Cc1ccc(-c2ccccc2-c2nn[nH]n2)cc1 = 1 (yes)
• COc1ccc(-c2nc3cnc(N4CCN(C)CC4)nc3n(Cc3ccc(F)cc3)c2=O)cc1 = 0 (no)
• COc1ccccc1N1CCN(CCN2C(=O)c3ccccc3C(C)(C)C2=O)CC1 = 0 (no)
• CSc1nc(C)cc(SC(C(C)=O)C(=O)Nc2ccccc2)n1 (stereo not drawn) = 0 (no)
• COC(=O)C1=C(C)OC(N)=C(C#N)C1c1cc(OC)ccc1OC (stereo not drawn) = 1 (yes)
• OC(CN1CCCCC1)CN1CCCCC1 = 0 (no)
• CS(=O)(=O)N1CCC2(CCN(C(=O)Nc3cccc(F)c3)CC2)CC1 = 0 (no)
• FC(F)(F)c1ccc(N2CCOCC2)c(Nc2nc3ccccc3n3cnnc23)c1 = 1 (yes)
• CCOC(=O)C1C(=O)C=C(c2ccc(NS(C)(=O)=O)cc2)CC1c1ccco1 (stereo not drawn) = 1 (yes)
• CC1=C(C(=O)OCc2ccccc2)C(c2ccc([N+](=O)[O-])cc2)NC(=O)N1CCCCCC(=O)O (stereo not drawn) = 0 (no)
• Nc1nc(SCc2ccccc2[N+](=O)[O-])c2[nH]cnc2n1 = 1 (yes)
• CC(C)C1NC(=S)N(Cc2ccccc2)C1=O (stereo not drawn) = 1 (yes)
• CC1(C)OC(C(N)=O)C(C(N)=O)O1 (stereo not drawn) = 0 (no)
